# target_or_test_system: D2 receptor (human) in CHOp-cells (Homo sapiens (Human), UniProt P14416)
# Sequence (P14416 whole entry): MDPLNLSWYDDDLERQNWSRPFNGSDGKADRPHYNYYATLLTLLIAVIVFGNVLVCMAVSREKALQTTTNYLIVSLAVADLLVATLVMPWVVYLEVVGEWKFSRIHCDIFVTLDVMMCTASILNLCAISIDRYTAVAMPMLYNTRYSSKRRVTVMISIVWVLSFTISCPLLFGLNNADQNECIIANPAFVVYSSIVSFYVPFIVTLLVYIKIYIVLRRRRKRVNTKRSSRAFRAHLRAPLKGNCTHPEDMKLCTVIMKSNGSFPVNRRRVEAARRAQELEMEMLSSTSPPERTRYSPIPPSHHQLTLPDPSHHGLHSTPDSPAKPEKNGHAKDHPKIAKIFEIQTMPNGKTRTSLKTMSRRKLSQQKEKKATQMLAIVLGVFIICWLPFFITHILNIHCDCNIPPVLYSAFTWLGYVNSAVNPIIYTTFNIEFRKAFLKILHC
# protocol: D2 inhibition of quinpirole stimulation of mitogenesis (antagonist assay)
# stated_conditions: inhibition of 30 nM quinpirole stimulated mitogenesis, read-out: IC50 ± S.E.M., D2
Some molecules, each annotated with its measured IC50.
observed_property: IC50 (nM)

> print(dat)
                                   molecule  observed.property  unit.of.measure  reported.measurement
1  Cc1cccc(-c2ccc(C(=O)NC/C=C/CN3CCN(c4cccc(Cl)c4Cl)CC3)cc2)n1 [Compound 10]               IC50               nM                  1300
2  O=C(NC/C=C/CN1CCN(c2cccc(Cl)c2Cl)CC1)c1ccc(-c2cccc(=O)[nH]2)cc1 [Compound 9]               IC50               nM                    41
3  O=C(NC/C=C/CN1CCN(c2cccc(Cl)c2Cl)CC1)c1ccc(-c2cccc[n+]2[O-])cc1 [Compound 12]               IC50               nM                  22.9
4  Cc1cccnc1-c1ccc(C(=O)NC/C=C/CN2CCN(c3cccc(Cl)c3Cl)CC2)cc1 [Compound 11]               IC50               nM                   368
5  O=C(NCC(O)CCN1CCN(c2cccc(Cl)c2Cl)CC1)c1ccc(-c2ccccn2)cc1 (stereo not drawn) [Compound 21]               IC50               nM                  88.3
6  COc1ccccc1N1CCN(C/C=C/CNC(=O)c2ccc3c(c2)Cc2ccccc2-3)CC1 [Compound 15]               IC50               nM                   179
